- Tested on: SN12C renal
- assay.info: NCI-60 one-dose screen, 48 h
- assay.setup: 10 µM unless noted
About 83,000 compounds went through this panel and 20% of them were active in at least one assay; those are over-represented in the sample as a whole. Calls of active or inactive are those of the source. How the source made its calls: active means growth percent below 10; inactive means the rest.
Log the outcome using a class from TRUE for active, FALSE for inactive

Input line: # fetch the recorded call for CN(C)c1ccc(/C=N/n2c(-c3cc(F)c(Cl)cc3Cl)nn(CN3CCOCC3)c2=S)cc1 here
Output line: FALSE

Input line: # fetch the recorded call for S=C=NP1(N=C=S)=NP(N=C=S)(N=C=S)=NP(N=C=S)(N=C=S)=NP(N=C=S)(N=C=S)=N1 (stereo not given) here
Output line: FALSE

Input line: # fetch the recorded call for COc1cc(CN(c2ccc(Cl)cc2)C2OC(=O)c3ccccc32)cc(OC)c1OC (stereo not given) here
Output line: FALSE

Input line: # fetch the recorded call for COc1ccc(-c2nn(-c3ccc(NC(=O)c4ccc(Cl)c(C(F)(F)F)c4)cc3)cc2-c2ccncc2)cc1Cl here
Output line: FALSE

Input line: # fetch the recorded call for C=C1C(=O)O[C@H]2[C@H]1CC/C(COC(=O)c1ccccc1)=C\CC[C@@]1(C)O[C@@H]21 here
Output line: TRUE

Input line: # fetch the recorded call for FC(F)(F)c1cn(CC2CNC2)c2ncnc(Cl)c12 here
Output line: FALSE

Input line: # fetch the recorded call for C=CC(=O)Nc1cccc(Nc2nc(Nc3ccc(OCCOC(F)F)cc3)ncc2F)c1 here
Output line: FALSE

Input line: # fetch the recorded call for c1ccc([Se]CCCN2CCN(CCC[Se]c3ccccc3)CC2)cc1 here
Output line: FALSE

Input line: # fetch the recorded call for Cc1nssc1=S here
Output line: FALSE

Input line: # fetch the recorded call for N#Cc1c2c(c(N)[nH]c1=O)C(=O)NC2(O)c1ccccc1 (stereo not given) here
Output line: FALSE

----------
- Tested on: MDA-MB-231 breast
- assay.info: NCI-60 one-dose screen, 48 h (100 = growth as untreated, 0 = no growth, -100 = all killed)
- assay.setup: 10 µM unless noted
This is part of a sample that, as a whole, favours compounds with a hit. Of some 83,000 tested, about 20% had one in any assay.
For each record, write down the corresponding growth.
Enter your answer as a number in %; do not include the unit.

For this compound ( Cc1cccc(Cc2cnc(NC(=O)CCc3ccc(C)o3)s2)c1 ), measured growth is 15.4

For this compound ( COc1cc(-c2nc3ccccc3s2)ccc1OCc1nc2n(n1)S(=O)(=O)c1ccccc1N2C ), measured growth is 84.6

For this compound ( CC(=O)N1N=C(CCC(=O)c2nc3ccc([N+](=O)[O-])cc3[nH]2)OC1c1ccc(O)cc1 (stereo unspecified) ), measured growth is 102

For this compound ( c1cncc(-c2nc3ccccc3[nH]2)c1 ), measured growth is 83.4

For this compound ( C=CC(=O)Nc1cccc(Nc2nc(Nc3ccc(OCCOC(F)F)cc3)ncc2F)c1 ), measured growth is 66.3

For this compound ( CCc1c(C)c2cc3c(c(C)c2oc1=O)OCC(=O)N3 ), measured growth is 65.6

----------
For each record, write down the corresponding growth.
- Test system: HS 578T breast
- assay.info: NCI-60 one-dose screen, 48 h (100 = growth as untreated, 0 = no growth, -100 = all killed)
- assay.setup: 10 µM unless noted
The panel holds about 83,000 compounds, 20% with a hit somewhere; the sample as a whole holds those more often.
Enter your answer as a number in %; do not include the unit.

For this compound ( Cn1c(I)c(C#C[Si](C)(C)C)c(=O)[nH]c1=O ), measured growth is 10.6

For this compound ( O=c1c(-c2ccc3c(c2)OCO3)coc2c(CO)c(O)ccc12 ), measured growth is 6.65

For this compound ( Nn1c(SCC(=O)Nc2cc(Cl)c(Cl)cc2Cl)nnc1-c1cc(F)c(Cl)cc1Cl ), measured growth is 103

For this compound ( CCC1S/C(=N\N=C(/C)c2ccco2)N(c2ccccc2)C1=O (stereo not given) ), measured growth is 231

For this compound ( CCOc1cccc(Nc2nc(N)nc3[nH]c4ccc(O)cc4c23)c1 ), measured growth is 58.5

For this compound ( CCN(CC)c1ccc(C2CC(c3cc(OC)c(OC)c(OC)c3)=NN2)cc1 (stereo not given) ), measured growth is -13.3

For this compound ( CCn1c(SC)nnc1-c1cc2c([nH]c3ccccc32)c(-c2cccc(O)c2)n1 ), measured growth is 12.3

For this compound ( CCNC(=O)Oc1ccc(/C(=C(/CC)Cc2ccccc2)c2ccc(OCCN3CCOCC3)cc2)cc1 ), measured growth is 62.5

For this compound ( COc1ccc2c(c1)O/C(=C/c1ccc(OCC(=O)Nc3ccc(S(N)(=O)=O)cc3)cc1)C2=O ), measured growth is 99.4

For this compound ( CCc1c2cc(Cl)ccc2n2cc(Cc3ccccc3)[nH]c(=O)c12 ), measured growth is 87.4

----------
For each record, write down the corresponding growth.
- Tested on: HOP-62 NSCLC
- assay.info: NCI-60 one-dose screen, 48 h (100 = growth as untreated, 0 = no growth, -100 = all killed)
- assay.setup: 10 µM unless noted
- Protocol: Growth inhibition of the HOP-62 human Non-Small Cell Lung tumor cell line is measured as a screen for anti-cancer activity. Cells are grown in 96 well plates and exposed to the test compound for 48 hours. Compounds are tested at a single concentration, which is 10^-5 M for most compounds. The reported endpoint is percent growth (GI% or GIPRCNT), where numbers from 0 - 100% represent growth inhibition, and numbers from -100% - 0 represent cell death. […]
Compounds without any hit were thinned out: in the full panel of roughly 83,000, 20% have a hit.
Enter your answer as a number in %; do not include the unit.

For this compound ( O=C(/C=C/c1ccco1)c1cccc(Nc2nc(Nc3ccccc3)nc(Nc3ccccc3)n2)c1 ), measured growth is 86.5

For this compound ( CN1CCN(CC(O)COc2c(Br)c(Br)c(Br)c3c2OC(C)(C)C3)CC1 (centres undefined) ), measured growth is 16.4

For this compound ( CCCCNC(=O)Oc1ccc(/C(=C(/CC)Cc2ccccc2)c2ccc(OCCCN(C)C)cc2)cc1 ), measured growth is 96.1

For this compound ( CCCCN(CCCC)c1ccc(C(=N)c2ccc(N(C)C)cc2)cc1 ), measured growth is -84

For this compound ( CC(/C=C/C=C(\C)[C@H](O)[C@H](C)C(=O)O[C@H]1C[C@H](C)C=C2C=C[C@@]3(C)O[C@@H](O)CC(=O)[C@]3(C)[C@H]21)=C\C=C\C(=O)O ), measured growth is -3.68

For this compound ( O=C(Nc1ccc(-n2cc(-c3ccncc3)c(-c3ccc(O)c(Cl)c3)n2)cc1)Nc1cc(C(F)(F)F)cc(C(F)(F)F)c1 ), measured growth is 71.5

For this compound ( COC(=O)Nc1nc2ccc(Sc3ccccc3)cc2[nH]1 ), measured growth is 29.4

For this compound ( c1ccc([Se]CCCN2CCN(CCC[Se]c3ccccc3)CC2)cc1 ), measured growth is 94.5

For this compound ( Cc1cc2nc(-c3c(N)ncc(C#N)c3-c3ccc(Cl)cc3)[nH]c2cc1C ), measured growth is 83.5

----------
- System: RPMI-8226 leukemia
- assay.info: NCI-60 one-dose screen, 48 h (100 = growth as untreated, 0 = no growth, -100 = all killed)
- assay.setup: 10 µM unless noted
Compounds without any hit were thinned out: in the full panel of roughly 83,000, 20% have a hit. Active and inactive are the calls of the source. Rule for the calls: active = growth percent below 10; inactive = the rest.
For each record, write down the corresponding growth.

For this molecule ( COc1ccc(C[C@H](N)C(=O)N[C@@H]2[C@@H](CO)OC(n3cnc4c(N(C)C)ncnc43)[C@@H]2O)cc1 (some centres undefined) ), measured growth is 12.5% (inactive)

For this molecule ( CC(=O)CC/C=C(\C)[C@H](O)[C@H](C)C(=O)O[C@H]1C[C@H](C)C=C2C=C[C@@]3(C)O[C@@H](O)CC(=O)[C@]3(C)[C@H]21 ), measured growth is -18.5% (active)

For this molecule ( CC(C)NCC(O)COc1ccc(CC(N)=O)cc1 (centres undefined) ), measured growth is 99.1% (inactive)

For this molecule ( Cc1nccc2c3ccc(OCc4cn(Cc5ccc(Br)cc5)nn4)cc3n(CCCc3ccccc3)c12 ), measured growth is 72.9% (inactive)

----------
For each record, write down the corresponding growth.
- Tested on: RXF 393 renal
- assay.info: NCI-60 one-dose screen, 48 h (100 = growth as untreated, 0 = no growth, -100 = all killed)
- assay.setup: 10 µM unless noted
This is part of a sample that, as a whole, favours compounds with a hit. Of some 83,000 tested, about 20% had one in any assay. Active and inactive are the calls of the source. How the source made its calls: active means growth percent below 10; inactive means the rest.

For this compound ( CC(=O)Nc1ccc(OC(=O)c2ccccc2O)cc1 ), measured growth is 114% (inactive)

For this compound ( CN1CCN(Cn2nc(-c3cc(F)c(Cl)cc3Cl)n(/N=C/c3ccc(N(C)C)cc3)c2=S)CC1 ), measured growth is 82.7% (inactive)

For this compound ( CC(C)(C)OC(=O)N1CC(Cn2cc(C(F)(F)F)c3c(Cl)ncnc32)C1 ), measured growth is -63.7% (active)

For this compound ( COc1ccc2c(c1)/C(=C/c1c(-c3cc(OC)c(OC)c(OC)c3Br)nc3sccn13)C(=O)N2 ), measured growth is 118% (inactive)

For this compound ( Cc1nccc2c3ccc(OCc4cn(-c5ccc(Br)cc5)nn4)cc3n(CCCc3ccccc3)c12 ), measured growth is -26.2% (active)

For this compound ( Nn1c(CN2CCN(c3cc4c(cc3F)c(=O)c(C(=O)O)cn4C3CC3)CC2)n[nH]c1=S ), measured growth is 109% (inactive)

For this compound ( Clc1ccc2c(c1)nnn1c3ncccc3c(Br)c21 ), measured growth is 41.5% (inactive)

For this compound ( COc1ccc(N)c(S)c1 ), measured growth is 111% (inactive)

For this compound ( CC[C@H]1[C@@H]2C=C[C@@H]3[C@H]4C/C=C\C(=O)NCCC[C@@H]5NC(=O)/C(=C(O)/C=C/[C@@H]4C[C@@H]3[C@H]2C[C@H]1C)C5=O ), measured growth is -86.1% (active)

For this compound ( C[C@]12O[C@H]1[C@H](O)c1c(cc(O)c3c1C(=O)c1cccc(O)c1-3)C2=O ), measured growth is 123% (inactive)

For this compound ( COc1ccc(C(=O)NC(=O)Nc2ccc3c(c2)NC(=O)/C3=C\c2[nH]c(C)c(C(=O)O)c2C)cc1 ), measured growth is 49.1% (inactive)

For this compound ( COc1ccc(Cl)cc1NC(=O)c1cc2c(n1C)-c1nc(NC(=O)C(C)C)sc1CC2 ), measured growth is 101% (inactive)

For this compound ( COc1cc(-c2nc3ccccc3s2)ccc1OCc1nc2n(n1)S(=O)(=O)c1ccccc1N2C ), measured growth is 58.3% (inactive)

For this compound ( O=C(N/N=C1\SCC(=O)N1c1ccccc1)c1cc(-c2cc3ccccc3o2)nn1-c1ccccc1 ), measured growth is 101% (inactive)

For this compound ( COC(=O)c1oc2c(C(=O)/C=C/c3ccc(OC)cc3)c(OCCN3CCOCC3)ccc2c1C ), measured growth is -64.4% (active)

For this compound ( Nc1nc(-c2cc3c(cc2Cl)NC(=O)/C3=C/c2ccc(Cl)cc2)cs1 ), measured growth is 51.6% (inactive)

For this compound ( COC(=O)Nc1nc2ccc(Sc3ccccc3)cc2[nH]1 ), measured growth is 15% (inactive)

For this compound ( COc1cc2ncnc(Oc3ccc(NC(=O)Nc4ccc(CN5CCOCC5)c(C(F)(F)F)c4)c4ccccc34)c2cc1OC ), measured growth is 20.8% (inactive)

For this compound ( Cn1c(I)c(C#C[Si](C)(C)C)c(=O)[nH]c1=O ), measured growth is -86.3% (active)
